A collection of molecules and their measured composite z-score
target.system: Torsin-1A (Homo sapiens) (UniProt O14656)
Sequence (O14656 whole entry, looked up): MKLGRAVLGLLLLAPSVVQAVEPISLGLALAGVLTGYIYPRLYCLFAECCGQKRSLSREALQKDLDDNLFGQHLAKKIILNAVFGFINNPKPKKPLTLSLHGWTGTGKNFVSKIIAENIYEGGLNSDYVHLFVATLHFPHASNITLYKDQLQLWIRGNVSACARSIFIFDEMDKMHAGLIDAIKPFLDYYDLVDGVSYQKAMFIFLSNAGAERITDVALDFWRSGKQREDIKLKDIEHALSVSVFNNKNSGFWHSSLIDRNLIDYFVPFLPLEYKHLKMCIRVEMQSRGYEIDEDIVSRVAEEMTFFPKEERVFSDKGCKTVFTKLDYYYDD
procedure.text: small-molecule binders of mutant TOR1A in lysate, primary screen, cell lysate, small-molecule microarray, COS7 lysate, 635/667 nm fluorescence (AID 1150);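 note: score pools 667 nm emission and signal to noise measuring lysate protein binding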
run.conditions: COS7 hTOR1A mutant lysate, 635 nm fluorescence, higher = more signal
recorded.endpoint: composite z-score

CC(=O)N1Cc2ccccc2C[C@@]2(COC(c3ccc(OCCCO)cc3)=N2)C1=O | 0.997
COCCCN1C(=O)[C@@]2(Cc3ccccc31)c1ccccc1C(=O)N(Cc1ccccc1C(F)(F)F)[C@H]2c1ccc(CO)cc1 | -0.0875
COc1ccc(C(O)C2C=CC3C(=O)NC(=O)C3N2Nc2ccccn2)c2ccccc12 (stereo unspecified) | -0.274
COCCOC(=O)N1C(=O)[C@@]2(c3cc(C#CC4=CCCCC4)ccc31)[C@H](C(=O)N1CCc3cc(OC)c(OC)cc3C1)[C@H]1C(=O)O[C@H](c3ccccc3)[C@H](c3ccccc3)N1[C@@H]2c1ccc(OCCO)cc1 | 0.295
CN(C)C(=O)[C@]1(Cc2ccccc2N=[N+]=[N-])N=C(c2ccc(OCCCO)cc2)O[C@@H]1c1ccccc1 | 0.902
C=CCOC(=O)[C@H]1[C@@H]2C(=O)O[C@@H](c3ccccc3)[C@@H](c3ccccc3)N2[C@@H](c2ccc(OCCOC(=O)[C@@H]3C[C@@H]4C(=O)N[C@@H](CCCCN(C)C)C(=O)N4[C@@H]3c3ccc(O)cc3)cc2)[C@]12C(=O)Nc1ccc(I)cc12 | 0.671

* * *

procedure.text: small-molecule microarray binders of probe aCHRDL2, primary screen, biochemical, biotinylated probe, 635/667 nm fluorescence (AID 1100)
run.conditions: higher = more signal
recorded.endpoint: composite z-score

C=CCC(OC(C)=O)[C@@H]1[C@@H](N(Cc2ccc(-c3ccccc3)cc2)C(=O)Cc2ccc(F)cc2)c2cc(OCCCO)ccc2N1C(=O)c1ccc(-c2ccccc2)cc1 (some centres not stated) | 0.216
COC(=O)[C@@]1(Cc2ccc(OC)cc2)[C@H]2c3cc(C(=O)N(C)C)n(CCN4CNCC4=O)c3C[C@H]2CN1C(=O)c1ccccc1 | 0.7
COc1ccc(NN2C(C(O)c3ccc([N+](=O)[O-])cc3)C=CC3C(=O)N(C4CCCCC4)C(=O)C32)cc1 (configuration not stated) | 0.879
CC(C)C[C@H]1NC(=O)[C@@]23C(=O)N[C@@H](Cc4ccccc4)C2[C@H](C)[C@@]2(C)O[C@H]2C3/C=C/C/C=C\CNC(=O)[C@H](Cc2ccccc2)NC1=O (some centres not stated) | -0.471
O=C1OCCC/C=C\[C@H]2OC34C=CCN(CCN5CCOCC5)C(=O)[C@H]3N(CCCO)C(=O)[C@@H]4C12 (some centres not stated) | 0.0663
CN(C)CCCNC(=O)[C@@]1(C)c2ccccc2C(=O)N(Cc2cc(F)cc(C(F)(F)F)c2)[C@H]1c1ccc(CO)cc1 | 0.682
COC(=O)[C@@]1(Cc2ccccc2)[C@H]2c3cc(C(=O)N4CCCC4)n(Cc4cccc5ccccc45)c3C[C@H]2CN1C(=O)c1ccccc1 | 1.44

* * *

Tested on: Chordin-like protein 2 (CHRDL2)
procedure.text: CHRDL2 small-molecule binders, primary screen, biochemical, small-molecule microarray, 635 nm fluorescence (AID 1126);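 note: printed compound slides probed with Chrdl2 protein at 4 µg/mL for 1 h at 4 C; score merges 667 nm emission intensity with signal to noise over three replicate slides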
run.conditions: small-molecule microarray binding, fluorescence 635 nm; higher = more signal
recorded.endpoint: composite z-score

C=CC[C@@]1(C(=O)NCc2ccccc2)N=C(c2ccc(OCCCO)cc2)O[C@@H]1c1ccccc1N=[N+]=[N-] | -0.623
CN1C(=O)C2C=CC(C(O)C3CC=CCC3)N(NC(=O)OC(C)(C)C)C2C1=O (centres undefined) | 0.547
O=C1[C@H]2C=C(Br)[C@H](C[C@@H]2OCCCCO)[C@@]12CO2 | 0.483
CCOC(=O)[C@H]1C/C=C/C[C@H](C(=O)OCC)C(=O)O[C@H]2[C@@H](OC)O[C@H](CO)[C@@H](OC(=O)Nc3ccc(C#N)cc3)[C@@H]2OC1=O | -0.619
